The entries below come with measured Percent Effect values attached.
Biological target: Tyrosyl-tRNA synthetase, putative (Trypanosoma cruzi (strain CL Brener))
Assay: Trypanosoma cruzi tyrosyl tRNA synthetase (TcYRS) _High Tyrosine SOP; further: in the data most compounds retested in dose-response had high values
Assay type: functional
Parameters: scale not given: direction of the effect not stated beside the values
Conditions: 30 µM
Kindly provide the numeric value in % only, without the unit symbol.

See these solved cases before continuing.
{"compound": "Cc1cc(C)c(OCC(=O)NS(=O)(=O)c2cccnc2)c(C)c1", "Percent Effect [%]": 10.3}
{"compound": "O=C1CC2(CCCNC2)C(=O)N1Cc1ccc(F)cc1 (configuration not stated)", "Percent Effect [%]": 0.966}
{"compound": "NC(=O)N1CCC2(CC1)CN(c1ccsc1)C(=O)CO2", "Percent Effect [%]": -3.19}
{"compound": "Cc1cc(C2CCCN2CC(=O)N(CCC#N)c2ccccc2F)on1 (configuration not stated)", "Percent Effect [%]": 3.96}
{"compound": "COc1ccc(NC(=O)Cn2nc(C)c(C)cc2=O)cc1OC", "Percent Effect [%]": 0.529}
{"compound": "CC(C(=O)N1CCCN(c2ccc(C#N)cc2)CC1)n1ccnc1 (configuration not stated)", "Percent Effect [%]": 8.33}

In: I'm curious: which Percent Effect was measured for Cn1ncc2c1NC(=O)CC2c1ccccc1Cl (configuration not stated) tested on Tyrosyl-tRNA synthetase, putative (Trypanosoma cruzi (strain CL Brener))?
Out: 1.06

###

Target: Proteasome subunit beta (Trypanosoma cruzi)
Sequence (whole entry): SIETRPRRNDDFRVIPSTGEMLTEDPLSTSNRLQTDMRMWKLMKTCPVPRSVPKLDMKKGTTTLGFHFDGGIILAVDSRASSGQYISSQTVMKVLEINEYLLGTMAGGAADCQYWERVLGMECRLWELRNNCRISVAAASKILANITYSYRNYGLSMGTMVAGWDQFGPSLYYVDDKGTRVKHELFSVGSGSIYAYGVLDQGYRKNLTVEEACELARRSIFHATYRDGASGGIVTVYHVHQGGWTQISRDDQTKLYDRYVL
Assay: Trypanosoma cruzi proteasome chymotrypsin-like activity (TcProtChymo) assay. Further: in the data most compounds retested in dose-response had high values.
Type: functional
Design: scale not given: direction of the effect not stated beside the values
Details: 9.37 µM
Threshold check on Percent Effect: at or above 9% gives Fulfilled, strictly below gives Not fulfilled.

Take a look at these entries with their results.
{"molecule": "COCCN(C)C[C@@H]1CCC[C@@H]2CN(c3cc(OC)ncn3)C[C@@H]21", "answer label": "Fulfilled"}
{"molecule": "Cc1cc(=O)n(CC(=O)NCC2CCCO2)c(-c2ccc(F)cc2)n1 (centres undefined)", "answer label": "Not fulfilled"}
{"molecule": "OC(CNCCn1cccn1)c1ccc2c(c1)OCCO2 (centres undefined)", "answer label": "Not fulfilled"}

In: Entry `Cn1ccc(C(=O)N2CCN(c3ncccn3)CC2)cc1=O` : is its Percent Effect no less than 9%?
Out: Not fulfilled

In: Entry CCn1cc(CNC2CC(=O)N(CCc3cccc(Cl)c3)C2)cn1 (centres undefined) : is its Percent Effect no less than 9%?
Out: Not fulfilled

In: Entry `Cc1cnn(CCNCCCOc2ccccc2)c1` : is its Percent Effect no less than 9%?
Out: Not fulfilled

In: Entry `Cc1ccc(-c2nc(CN3CCN(S(=O)(=O)N(C)C)CC3)cs2)o1` : is its Percent Effect no less than 9%?
Out: Fulfilled

In: Entry CCN1CC(C(=O)NC(C)(C)CC(C)(C)C)CC1=O (centres undefined) : is its Percent Effect no less than 9%?
Out: Not fulfilled

In: Entry `CN(C)CCN1C[C@@H]2CN(C(=O)c3ccsc3)C[C@@H]2C1=O` : is its Percent Effect no less than 9%?
Out: Not fulfilled

In: Entry O=C(Nc1ccccc1)c1nn(C2CCS(=O)(=O)C2)c2c1CCCC2 (centres undefined) : is its Percent Effect no less than 9%?
Out: Fulfilled

In: Entry Cc1nc(CN2CCCC(CCc3c(F)cccc3F)C2)c[nH]1 (centres undefined) : is its Percent Effect no less than 9%?
Out: Not fulfilled

In: Entry `O=C1NCC[C@]12CN(Cc1ccoc1)C[C@H]2c1ccccc1` : is its Percent Effect no less than 9%?
Out: Fulfilled

In: Entry `Cc1cc2c(=O)n3c(nc2s1)CCN(Cc1cnn(C)c1C)CC3` : is its Percent Effect no less than 9%?
Out: Not fulfilled

In: Entry `CS(=O)(=O)NCc1cnc2n1CCN(Cc1ccsc1)CC2` : is its Percent Effect no less than 9%?
Out: Fulfilled

In: Entry `CN1N=C(C(=O)N(Cc2ccco2)C2CC2)CCC1=O` : is its Percent Effect no less than 9%?
Out: Fulfilled

In: Entry `Cc1cc(C)n(CC(=O)N2CCC(c3nc(C)no3)CC2)n1` : is its Percent Effect no less than 9%?
Out: Fulfilled

In: Entry `CCn1nc(C)c2nc(C(C)C)nc(NCCOC)c21` : is its Percent Effect no less than 9%?
Out: Fulfilled

In: Entry Cc1cccc(-c2noc(CN3CCCC(Cn4cncn4)C3)n2)c1 (centres undefined) : is its Percent Effect no less than 9%?
Out: Not fulfilled

###

Target: Tyrosyl-tRNA synthetase, putative (Trypanosoma cruzi (strain CL Brener))
Test: Trypanosoma cruzi tyrosyl tRNA synthetase (TcYRS) SOP
Assay type: functional
Set-up: scale not given: direction of the effect not stated beside the values
Details: 30 µM
Percent Effect strictly less than 10% = Criterion met. Otherwise Criterion not met.

Take a look at these entries with their results.
{"compound": "CCc1nc(CN2CCN(C(=O)COCc3ccccc3)CC2)no1", "answer label": "Criterion met"}
{"compound": "CC(O)CN1CCC(CNCc2cccc(C(N)=O)c2)CC1 (configuration not stated)", "answer label": "Criterion not met"}
{"compound": "COc1ccccc1CC1CCCN(CC(=O)N2CCOCC2)C1 (configuration not stated)", "answer label": "Criterion met"}
{"compound": "O=C(c1cc(C2CC2)on1)N1CC[C@]2(C[C@H](Oc3cccnc3)CO2)C1", "answer label": "Criterion met"}
{"compound": "Cc1ccc(NC(=O)N2C[C@H]3CC[C@@H]2CN(Cc2cscn2)C3)cc1", "answer label": "Criterion not met"}

In: For this compound, is Percent Effect lower than 10%? CN(C)c1cc(C(=O)N2CCCC(n3cccn3)C2)ccn1 (configuration not stated)
Out: Criterion not met

In: For this compound, is Percent Effect lower than 10%? CCC(C)NC(=O)N1CCCn2cnc(CO)c2C1 (configuration not stated)
Out: Criterion met

In: For this compound, is Percent Effect lower than 10%? `Cc1nc(N2CCN(C(=O)C3CC3)CC2)c2c(n1)c(C)nn2C`
Out: Criterion not met

In: For this compound, is Percent Effect lower than 10%? `Cc1nc(N2CCN(C)CC2)ncc1C(=O)N1CCC(O)(CO)CC1`
Out: Criterion not met

In: For this compound, is Percent Effect lower than 10%? O=C(NC(Cc1ccsc1)c1nccs1)C1CCOCC1 (configuration not stated)
Out: Criterion met

In: For this compound, is Percent Effect lower than 10%? CN(CC1CN(Cc2cn3ccsc3n2)CCO1)c1cccnn1 (configuration not stated)
Out: Criterion not met

In: For this compound, is Percent Effect lower than 10%? `CN(C)Cc1cc(=O)n2c(n1)CN(C(=O)Cc1ccsc1)CCC2`
Out: Criterion met

In: For this compound, is Percent Effect lower than 10%? Cc1cc(C2CCCN2Cc2cc(=O)n(C)c(=O)n2C)on1 (configuration not stated)
Out: Criterion met

In: For this compound, is Percent Effect lower than 10%? `CCOc1ncccc1CNC(=O)Nc1ccc(N(C)C)nc1`
Out: Criterion met

###

Target: Sialic acid-binding Ig-like lectin 9 (Homo sapiens) (UniProt Q9Y336)
Sequence (Q9Y336 whole entry): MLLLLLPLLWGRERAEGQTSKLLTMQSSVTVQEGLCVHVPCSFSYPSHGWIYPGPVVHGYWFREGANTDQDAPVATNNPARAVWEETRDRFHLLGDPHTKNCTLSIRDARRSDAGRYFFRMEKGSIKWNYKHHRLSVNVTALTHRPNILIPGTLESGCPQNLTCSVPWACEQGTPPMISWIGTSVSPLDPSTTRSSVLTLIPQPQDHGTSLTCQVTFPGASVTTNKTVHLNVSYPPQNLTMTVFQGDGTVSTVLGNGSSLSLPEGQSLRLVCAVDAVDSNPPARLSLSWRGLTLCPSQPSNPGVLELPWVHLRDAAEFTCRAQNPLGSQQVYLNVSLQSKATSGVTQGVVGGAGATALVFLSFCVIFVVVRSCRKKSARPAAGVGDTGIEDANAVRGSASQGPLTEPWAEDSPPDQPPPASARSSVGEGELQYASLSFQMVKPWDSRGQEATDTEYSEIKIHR
Test: Hs-Siglec9 ALPHAscreen SOP 20170721
Parameters: scale not given: direction of the effect not stated beside the values
Details: 10 µM
value kind: Percent Effect (%)
Kindly provide the numeric value in % only, without the unit symbol.

{"molecule": "COc1cccc(N2CCN(CC(O)c3cc(C)ccc3C)CC2)c1 (stereo unspecified)", "unit symbol": "%", "Percent Effect": -9.14}
{"molecule": "O=C(c1ccc(F)cc1Cl)N1CCC(Nc2cccnn2)CC1", "unit symbol": "%", "Percent Effect": 7.17}

In: Find the recorded Percent Effect belonging to O=C(Cc1ccccc1)N1CCC2(CC(=O)N(c3cccc(F)c3)C2)C1 (stereo unspecified) and report it.
Out: -3.6

In: Find the recorded Percent Effect belonging to CNCC(=O)N1CCCC(c2cccc(Nc3nc(C)cc(C)n3)n2)C1 (stereo unspecified) and report it.
Out: -10.1

In: Find the recorded Percent Effect belonging to COc1c(CNC(c2ccc(F)cc2)c2nccn2C)c(C)nn1C (stereo unspecified) and report it.
Out: -2.7

In: Find the recorded Percent Effect belonging to CCN(Cc1ccccc1)C(=O)CN1CCCC(Cn2cncn2)C1 (stereo unspecified) and report it.
Out: 18.3

In: Find the recorded Percent Effect belonging to Cc1nc(CN2CCCC(NCCOc3ccccc3)C2)no1 (stereo unspecified) and report it.
Out: -3.12

In: Find the recorded Percent Effect belonging to Cc1cc(C)c(CNC(=O)N(C)CC2CCCCO2)c(=O)[nH]1 (stereo unspecified) and report it.
Out: -2.11

In: Find the recorded Percent Effect belonging to Cc1cc(NC(=O)NCC(O)c2ccc(Cl)cc2Cl)n(C)n1 (stereo unspecified) and report it.
Out: 8.57

In: Find the recorded Percent Effect belonging to `O=C(CC1CCCC1)NCCn1ccc(-c2ccccn2)n1` and report it.
Out: 12

In: Find the recorded Percent Effect belonging to `CN(C)[C@@H]1CN(Cc2ccco2)C[C@@H]2CCCO[C@@H]21` and report it.
Out: -4.86
